# TARGET_OR_SYSTEM: Cytochrome P450 2C9 (Homo sapiens)
# Sequence (P11712 whole entry): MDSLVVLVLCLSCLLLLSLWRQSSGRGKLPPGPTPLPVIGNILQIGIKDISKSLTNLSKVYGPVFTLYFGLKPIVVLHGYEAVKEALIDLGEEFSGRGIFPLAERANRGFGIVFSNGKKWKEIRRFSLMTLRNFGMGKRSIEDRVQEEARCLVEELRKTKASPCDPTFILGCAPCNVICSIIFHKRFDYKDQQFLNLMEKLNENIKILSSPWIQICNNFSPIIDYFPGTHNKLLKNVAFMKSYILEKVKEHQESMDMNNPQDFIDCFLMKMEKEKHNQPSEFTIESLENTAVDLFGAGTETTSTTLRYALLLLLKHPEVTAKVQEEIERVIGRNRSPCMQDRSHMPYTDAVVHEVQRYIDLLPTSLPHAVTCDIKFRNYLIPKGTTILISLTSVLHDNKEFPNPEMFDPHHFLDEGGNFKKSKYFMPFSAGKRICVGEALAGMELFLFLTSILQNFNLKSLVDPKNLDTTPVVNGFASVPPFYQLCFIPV
READOUT_KIND: AC50

Below are worked cases with known answers.
>>> measurement("NC(=O)C1(NC(=O)[C@@H]2CC3(CC(c4cccc(NC(=O)c5cc([N+](=O)[O-])cc([N+](=O)[O-])c5)c4)=NO3)CN2C(=O)c2ccccc2)CC1 (stereo partly specified)")
"11.2 µM (inconclusive)"
>>> measurement("C[C@]12Cc3cn4c(nc3C=C1CC[C@H]1[C@@H]2CC[C@@]2(C)[C@H]1CC[C@@]2(O)C#N)nc1ccccc14")
"10 µM (inconclusive)"
>>> measurement("COc1ccc2cc3cc(C(=O)NCCN4CCN(c5ccccc5F)CC4)oc3nc2c1")
"22.4 µM (inconclusive)"

Challenge: For Cytochrome P450 2C9 (Homo sapiens), provide AC50 of COc1cc(C(=O)Nc2ccc(-c3nnc(-c4ccco4)o3)cc2)cc(OC)c1OC please.
Response given: 7.94 µM (inconclusive)

Challenge: For Cytochrome P450 2C9 (Homo sapiens), provide AC50 of O=C1C(O)=C(C(C2=C(O)C(=O)c3ccccc3C2=O)c2ccc(Cl)cc2)C(=O)c2ccccc21 please.
Response given: 3.16 µM (inconclusive)

Challenge: For Cytochrome P450 2C9 (Homo sapiens), provide AC50 of COc1ncc2nc(C)c(=O)n(CCc3ccccc3)c2n1 please.
Response given: 20 µM (inconclusive)

Challenge: For Cytochrome P450 2C9 (Homo sapiens), provide AC50 of Cc1cccc(C(=O)N2CCC(c3nc(-c4ccc(S(=O)(=O)N5CCOCC5)cc4)no3)CC2)c1 please.
Response given: 39.8 µM (inconclusive)

Challenge: For Cytochrome P450 2C9 (Homo sapiens), provide AC50 of CC(C)CNC(=O)c1nc(-c2ccccc2)n(-c2ccccc2)n1 please.
Response given: 39.8 µM (inconclusive)

Challenge: For Cytochrome P450 2C9 (Homo sapiens), provide AC50 of CCC(=O)c1ccc(OCc2ccc(C(=O)OC)cc2)c(OC)c1 please.
Response given: 8.91 µM (inconclusive)

Challenge: For Cytochrome P450 2C9 (Homo sapiens), provide AC50 of COc1ccc(OC)c2nc(O)c(CCNS(=O)(=O)c3ccccc3)cc12 please.
Response given: 14.1 µM (inconclusive)

Challenge: For Cytochrome P450 2C9 (Homo sapiens), provide AC50 of Cc1ccc2ncc([N+](=O)[O-])n2c1 please.
Response given: 0.708 µM (inconclusive)

Challenge: For Cytochrome P450 2C9 (Homo sapiens), provide AC50 of CCCS(=O)(=O)N1CCCC(C(=O)NCC2CCCO2)C1 (stereo unspecified) please.
Response given: 8.91 µM (inconclusive)

Challenge: For Cytochrome P450 2C9 (Homo sapiens), provide AC50 of O=c1cnc2cnc(N3CCOCC3)nc2n1Cc1ccc(F)cc1 please.
Response given: 25.1 µM (inconclusive)

Challenge: For Cytochrome P450 2C9 (Homo sapiens), provide AC50 of COc1cnc(-c2ccccc2)nc1Oc1cccc(C)c1 please.
Response given: 39.8 µM (inconclusive)

Challenge: For Cytochrome P450 2C9 (Homo sapiens), provide AC50 of Oc1ccnc2cccc(Cc3ccccc3)c12 please.
Response given: 15.8 µM (inconclusive)

Challenge: For Cytochrome P450 2C9 (Homo sapiens), provide AC50 of CCn1c2ccccc2c2cc(NC(=O)CSc3nnc(-c4ccc(OC)c(OC)c4)n3N)ccc21 please.
Response given: 22.4 µM (inconclusive)

Challenge: For Cytochrome P450 2C9 (Homo sapiens), provide AC50 of CC(=O)/N=c1/sc(S(N)(=O)=O)nn1C [METHAZOLAMIDE] please.
Response given: 12.6 µM (inconclusive)

Challenge: For Cytochrome P450 2C9 (Homo sapiens), provide AC50 of COc1ccc(C(=O)N2CCC3(CCN(Cc4ccc(C#N)cc4)CC3)CC2)cc1 please.
Response given: 31.6 µM (inconclusive)

Challenge: For Cytochrome P450 2C9 (Homo sapiens), provide AC50 of O=c1c([N+](=O)[O-])cc(C(F)(F)F)cn1Cc1c(Cl)cccc1Cl please.
Response given: 22.4 µM (inconclusive)

Challenge: For Cytochrome P450 2C9 (Homo sapiens), provide AC50 of Clc1ccc(-c2cc3ccccc3[nH]2)cc1 please.
Response given: 11.2 µM (inconclusive)

Challenge: For Cytochrome P450 2C9 (Homo sapiens), provide AC50 of CCOC(=O)C1=C(CN2c3ccccc3CC2C)NC(=O)NC1c1ccccc1 (stereo unspecified) please.
Response given: 25.1 µM (inconclusive)
